Experimental System: PDGFRalpha(V561D) (Homo sapiens, UniProt P16234, V561D)
Construct: recombinant human PDGFRalpha, amino acids 550end containing the V561 D mutation; 6His (N)
Sequence (P16234 550-1089 V561D): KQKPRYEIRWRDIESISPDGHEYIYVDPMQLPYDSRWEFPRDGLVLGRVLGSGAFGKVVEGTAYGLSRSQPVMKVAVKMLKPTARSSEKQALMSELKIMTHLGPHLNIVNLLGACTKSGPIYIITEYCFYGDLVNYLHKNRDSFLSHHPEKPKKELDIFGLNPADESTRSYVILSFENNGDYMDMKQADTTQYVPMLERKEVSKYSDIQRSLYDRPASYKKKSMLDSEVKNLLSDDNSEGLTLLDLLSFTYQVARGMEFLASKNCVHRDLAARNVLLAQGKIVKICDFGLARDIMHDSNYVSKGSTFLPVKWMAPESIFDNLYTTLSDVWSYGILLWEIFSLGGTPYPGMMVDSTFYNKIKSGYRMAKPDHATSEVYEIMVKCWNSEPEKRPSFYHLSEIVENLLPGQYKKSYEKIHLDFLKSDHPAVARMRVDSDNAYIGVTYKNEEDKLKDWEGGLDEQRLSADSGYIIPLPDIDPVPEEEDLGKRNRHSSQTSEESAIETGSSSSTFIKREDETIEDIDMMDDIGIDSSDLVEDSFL
Method Description: PDGFRalpha(V561D) assay
Recorded Conditions: recombinant human PDGFRalpha aa 550-end, 200 μM ATP, 1.4E-06 means 1.4×10^−6, read-out: Inhibition (IC50) of PDGFRα (V561D)
pIC50: −log10 of the molar value.
Assay Endpoint: pIC50

Examples from the recorded data:
Entry Smiles: COCCNC(=O)c1ccc(-n2cc(-c3cc4cccnc4[nH]c3=O)nn2)cc1
Experimental System: PDGFRalpha(V561D) (Homo sapiens, UniProt P16234, V561D)
pIC50: 6.64
--
Entry Smiles: CNC(=O)c1ccc(-n2cc(-c3cc4ccccc4[nH]c3=O)nn2)cc1F
Experimental System: PDGFRalpha(V561D) (Homo sapiens, UniProt P16234, V561D)
pIC50: 7.64
--
Entry Smiles: CO[C@@H]1CN(C(=O)c2ccc(-n3cc(-c4cc5cc(F)ccc5[nH]c4=O)nn3)cc2)C[C@H]1OC
Experimental System: PDGFRalpha(V561D) (Homo sapiens, UniProt P16234, V561D)
pIC50: 9.04
--
Entry Smiles: O=C(NCCO)c1ccc(-n2cc(-c3cc4cccnc4[nH]c3=O)nn2)cc1
Experimental System: PDGFRalpha(V561D) (Homo sapiens, UniProt P16234, V561D)
pIC50: 7.85

(P) COC[C@@H]1CCCN1C(=O)c1ccc(-n2cc(-c3cc4cc(Cl)ccc4[nH]c3=O)nn2)cc1
(Q) CO[C@@H]1C[C@@H](CO)N(C(=O)c2ccc(-n3cc(-c4cc5cc(F)ccc5[nH]c4=O)cn3)cc2)C1
(R) CN1Cc2cc(-n3cc(-c4cc5cc(F)ccc5[nH]c4=O)nn3)ccc2C1=O
(S) COC1CCN(C(=O)c2ccc(-n3cc(-c4cc5cc(F)c(F)cc5[nH]c4=O)nn3)cc2)CC1
Exercise: Order the items by recorded pIC50; the first position goes to the largest value. Provide your answer as the labels ordered per the instruction.
Key: Q, P, S, R

====

Experimental System: PDGFRalpha(V561D) (Homo sapiens, UniProt P16234, V561D)
Construct: recombinant human PDGFRalpha, amino acids 550end containing the V561 D mutation; 6His (N)
Method Description: PDGFRalpha(V561D) assay
Recorded Conditions: recombinant human PDGFRalpha aa 550-end, 200 μM ATP, 1.4E-06 means 1.4×10^−6, read-out: Inhibition (IC50) of PDGFRα (V561D)
Assay Endpoint: IC50 (nM)

Compound: CN1CCN(C(=O)c2ccc(-n3cc(-c4cc5ccccc5[nH]c4=O)cn3)cc2)CC1
Experimental System: PDGFRalpha(V561D) (Homo sapiens, UniProt P16234, V561D)
IC50 [nM]: 6
//
Compound: CCN(CC)[C@@H]1CCCN(C(=O)c2ccc(-n3cc(-c4cc5cc(F)ccc5[nH]c4=O)nn3)cc2)C1
Experimental System: PDGFRalpha(V561D) (Homo sapiens, UniProt P16234, V561D)
IC50 [nM]: 160
//
Compound: CN(C)C1CCN(C(=O)c2ccc(-n3cc(-c4cc5cc(Cl)ccc5[nH]c4=O)nn3)cc2)C1 (stereo not shown)
Experimental System: PDGFRalpha(V561D) (Homo sapiens, UniProt P16234, V561D)
IC50 [nM]: 24
//
Compound: O=C(c1ccc(-n2cc(-c3cc4c(F)cccc4[nH]c3=O)nn2)cc1)N1CCOCC1
Experimental System: PDGFRalpha(V561D) (Homo sapiens, UniProt P16234, V561D)
IC50 [nM]: 19
//
Compound: O=C(Cn1ccc2cc(-n3cc(-c4cc5c(F)cc(F)cc5[nH]c4=O)nn3)ccc21)N1CCNCC1
Experimental System: PDGFRalpha(V561D) (Homo sapiens, UniProt P16234, V561D)
IC50 [nM]: 86
//
Compound: O=C(c1ccc(-n2cc(-c3cc4cc(Cl)ccc4[nH]c3=O)nn2)cc1)N1CCNCC1
Experimental System: PDGFRalpha(V561D) (Homo sapiens, UniProt P16234, V561D)
IC50 [nM]: 1

(P) CO[C@H]1CN(C(=O)c2ccc(-n3cc(-c4cc5cc(F)ccc5[nH]c4=O)nn3)cc2)C[C@H]1OC
(Q) CC(=O)OC1CCN(C(=O)c2ccc(-n3cc(-c4cc5cc(F)ccc5[nH]c4=O)nn3)cc2)CC1
(R) O=C(c1ccc(-n2cc(-c3cc4cc(F)ccc4[nH]c3=O)nn2)cc1)N1CCOC[C@@H]1CO
Exercise: Order the records, beginning with the lowest IC50 and ending with the highest. Provide your answer as the labels ordered per the instruction.
Key: R, Q, P

====

Experimental System: PDGFRalpha(V561D) (Homo sapiens, UniProt P16234, V561D)
Construct: recombinant human PDGFRalpha, amino acids 550end containing the V561 D mutation; 6His (N)
Method Description: PDGFRalpha(V561D) assay
Recorded Conditions: recombinant human PDGFRalpha aa 550-end, 200 μM ATP, 1.4E-06 means 1.4×10^−6, read-out: Inhibition (IC50) of PDGFRα (V561D)
pIC50: −log10 of the molar value.
Assay Endpoint: pIC50

Compound: O=C(c1ccc(-n2cc(-c3cc4cc(F)ccc4[nH]c3=O)nn2)cc1)N1CCC(F)(F)C1 [A267]
pIC50: 8.85

Compound: CO[C@H]1CN(C(=O)c2ccc(-n3cc(-c4cc5cc(F)ccc5[nH]c4=O)cn3)cc2)C[C@@H]1OC [A303]
pIC50: 8.22

Compound: Cc1cc2[nH]c(=O)c(-c3cn(-c4ccc(C(=O)N5CCN(C)CC5)cc4)nn3)cc2cc1F [A222]
pIC50: 6.68

Compound: O=C(c1ccc(-n2cc(-c3cc4cc(F)ccc4[nH]c3=O)nn2)cc1)N1CCC2(CCOC2)C1 (stereo not shown) [A204]
pIC50: 6.96

(P) COCCN(CCOC)C(=O)c1ccc(-n2cc(-c3cc4cc(F)ccc4[nH]c3=O)nn2)cc1 [A238]
(Q) O=c1[nH]c2cc(F)c(F)cc2cc1-c1cn(-c2ccc(OCCCN3CCNCC3)cc2)nn1 [A135]
Exercise: Sorting by pIC50 in descending order, would P or Q appear first? Return value: the label identifying the chosen record.
Key: Q

(a) O=C(c1ccc(-n2cc(-c3cc4cc(F)ccc4[nH]c3=O)nn2)cc1)N1CC[C@H](F)C1 [A265]
(b) CN1CCN(CCCOc2ccc(-n3cc(-c4cc5cc(F)c(F)cc5[nH]c4=O)nn3)cc2)CC1 [A162]
Exercise: Which gives the smaller pIC50 number: a or b ? Return value: the label identifying the chosen record.
Key: b

(A) O=C(c1ccc(-n2cc(-c3cc4cc(F)cnc4[nH]c3=O)nn2)cc1)N1CCNCC1 [A122]
(B) COCCO[C@H]1CCN(C(=O)c2ccc(-n3cc(-c4cc5cc(F)ccc5[nH]c4=O)cn3)cc2)C1 [A299]
(C) O=C(c1ccc(-n2cc(-c3cc4cc(Cl)ccc4[nH]c3=O)nn2)cc1)N1C[C@H](O)CO1 [A277]
(D) CO[C@@H]1C[C@H](CO)N(C(=O)c2ccc(-n3cc(-c4cc5cc(Cl)ccc5[nH]c4=O)nn3)cc2)C1 [A247]
Exercise: Order the items by recorded pIC50; the first position goes to the largest value. Provide your answer as the labels ordered per the instruction.
Key: C, A, B, D

(P) CO[C@H]1CCN(C(=O)c2ccc(-n3cc(-c4cc5cc(F)c(F)cc5[nH]c4=O)nn3)cc2)C1 [A114]
(Q) COCCCN1CCN(C(=O)c2ccc(-n3cc(-c4cc5cc(F)cnc5[nH]c4=O)nn3)cc2)CC1 [A88]
Exercise: Sorting by pIC50 in descending order, would P or Q appear first? Return value: the label identifying the chosen record.
Key: Q
(Q: 8.22, P: 6.85)

====

Experimental System: PDGFRalpha(V561D) (Homo sapiens, UniProt P16234, V561D)
Construct: recombinant human PDGFRalpha, amino acids 550end containing the V561 D mutation; 6His (N)
Method Description: PDGFRalpha(V561D) assay
Recorded Conditions: recombinant human PDGFRalpha aa 550-end, 200 μM ATP, 1.4E-06 means 1.4×10^−6, read-out: Inhibition (IC50) of PDGFRα (V561D)
Description: PDGFRalpha(V561D) (N-terminal 6His-tagged, recombinant human PDGFRalpha, amino acids 550end containing the V561 D mutation) is incubated with 8 mM MOPS pH 7.0, 0.2 mM EDTA, 250 μM GGMEDIYEFMGGKKK, 10 mM MgAcetate and [gamma-33P-ATP] (specific activity approx. 500 cpm/pmol, concentration 200 μM). The reaction is initiated by the addition of the MgATP mix. After incubation for 40 minutes at room temperature, the reaction is stopped by the addition of 3% phosphoric acid solution. […]
Assay Endpoint: IC50 (nM)

Molecule: COCCCN1CCN(C(=O)c2ccc(-n3cc(-c4cc5cc(F)ccc5[nH]c4=O)nn3)cc2)CC1
IC50 / nM: 2

Molecule: O=C(c1ccc(-n2cc(-c3cc4ccc(Cl)cc4[nH]c3=O)nn2)cc1)N1CCNCC1
IC50 / nM: 42

Molecule: COCCO[C@@H]1CCN(C(=O)c2ccc(-n3cc(-c4cc5cc(F)ccc5[nH]c4=O)nn3)cc2)C1
IC50 / nM: 93

Molecule: CCN(CC)CCN1CCN(C(=O)c2ccc(-n3cc(-c4cc5cc(F)c(F)cc5[nH]c4=O)nn3)cc2)CC1
IC50 / nM: 430

Molecule: CN1CCN(C(=O)c2ccc(-n3cc(-c4cc5c(F)cc(F)cc5[nH]c4=O)nn3)cc2)CC1
IC50 / nM: 23

(I) CCN(CC)CCOC1CCN(C(=O)c2ccc(-n3cc(-c4cc5cc(F)ccc5[nH]c4=O)nn3)cc2)C1 (stereo not drawn)
(II) CN(C)[C@H]1CCCN(C(=O)c2ccc(-n3cc(-c4cc5ccc(F)cc5[nH]c4=O)nn3)cc2)C1
Exercise: Which gives the smaller IC50 number: I or II ? Return value: the label identifying the chosen record.
Key: II
